IC50 reference
experiment: Inhibition of chymotrypsin

Compound: CCCCCC(=O)NCC(=O)N[C@H](C(=O)N[C@@H]1C(=O)N[C@@H](CCC(N)=O)C(=O)N[C@H]2CC[C@@H](O)N(C2=O)[C@@H](Cc2ccccc2)C(=O)N(C)[C@@H](Cc2c[nH]c3ccccc23)C(=O)N[C@@H](C(C)C)C(=O)O[C@@H]1C)[C@@H](C)O
IC50: 960 nM

Given the entry CCCCCC(=O)N[C@@H](CCC(N)=O)C(=O)N[C@@H]1C(=O)N[C@@H](Cc2ccc(O)cc2)C(=O)N[C@H]2CC[C@@H](O)N(C2=O)[C@@H](Cc2ccccc2)C(=O)N(C)[C@@H](Cc2ccc(O)cc2)C(=O)N[C@@H](C(C)C)C(=O)O[C@@H]1C , report its measured IC50.
2850 nM

Then what about the compound CCCC(=O)N[C@@H](Cc1ccccc1)C(=O)N[C@@H](CCC(=O)OC)C(=O)N[C@@H]1C(=O)N[C@@H](Cc2ccc(O)cc2)C(=O)N[C@H]2CC[C@@H](O)N(C2=O)[C@@H](C(C)C)C(=O)N(C)[C@@H](Cc2ccccc2)C(=O)N[C@@H]([C@@H](C)CC)C(=O)O[C@@H]1C [MICROPEPTIN 88F] ?
3020 nM

----------
experiment: Inhibition of trypsin
Quantity Kind: pIC50
Remember, pIC50 is on a log scale: it is -log10 of the molar concentration.

# annotated cases, reported pIC50 shown
Compound: CCCCCC(=O)N[C@@H](CCC(=O)O)C(=O)N[C@@H]1C(=O)N[C@@H](CCCNC(=N)N)C(=O)N[C@H]2CC[C@@H](O)N(C2=O)[C@@H](CC(C)C)C(=O)N(C)[C@@H](Cc2ccc(O)cc2)C(=O)N[C@@H](C(C)C)C(=O)O[C@@H]1C [MICROPEPTIN B]
pIC50: 6.59
//
Compound: CC[C@@H](C)[C@@H]1NC(=O)[C@H](Cc2ccccc2)N(C)C(=O)[C@H]([C@@H](C)CC)N2C(=O)[C@H](CC[C@H]2O)NC(=O)[C@H](CCCCN)NC(=O)[C@@H](NC(=O)[C@@H](CCc2ccccc2)NC(=O)[C@@H](COS(=O)(=O)O)OC)[C@@H](C)OC1=O [OSCILLAPEPTIN F]
pIC50: 6.74
//
Compound: CC[C@H](C)[C@@H]1NC(=O)[C@H](Cc2ccccc2)N(C)C(=O)[C@H]([C@@H](C)CC)N2C(=O)[C@H](CC[C@H]2O)NC(=O)[C@H](CCCNC(=N)N)NC(=O)[C@@H](NC(=O)[C@H](O)COS(=O)(=O)O)[C@@H](C)OC1=O [CYANOPEPTOLIN S]
pIC50: 6.62
//
Compound: CC(C)C[C@@H](NC(=O)[C@H](O)COS(=O)(=O)O)C(=O)N[C@@H]1C(=O)N[C@@H](CCCNC(=N)N)C(=O)N[C@H]2CC[C@@H](O)N(C2=O)[C@@H](CC(C)C)C(=O)N(C)[C@@H](Cc2ccc(O)cc2)C(=O)N[C@@H](C(C)C)C(=O)O[C@@H]1C
pIC50: 8.02
//
Compound: CC(C)[C@@H]1NC(=O)[C@H](Cc2ccc(O)cc2)N(C)C(=O)[C@H](Cc2ccccc2)N2C(=O)[C@H](CC[C@H]2O)NC(=O)[C@H](CCCNC(=N)N)NC(=O)[C@@H](NC(=O)[C@@H](O)COS(=O)(=O)O)[C@@H](C)OC1=O [MICROPEPTIN 90]
pIC50: 5.68
//
Compound: CCCCCC(=O)N[C@@H](CCC(=O)O)C(=O)N[C@@H]1C(=O)N[C@@H](CCCCN)C(=O)N[C@H]2CC[C@@H](O)N(C2=O)[C@@H](Cc2ccccc2)C(=O)N(C)[C@@H](Cc2c[nH]c3ccccc23)C(=O)N[C@@H](C(C)C)C(=O)O[C@@H]1C [MICROPEPTIN T2]
pIC50: 7.00
//
Compound: CCCC(=O)N[C@@H](CC(=O)O)C(=O)N[C@@H]1C(=O)N[C@@H](CCCNC(=N)N)C(=O)N[C@H]2CC[C@@H](O)N(C2=O)[C@@H](Cc2ccccc2)C(=O)N(C)[C@@H](Cc2ccc(O)cc2)C(=O)N[C@@H]([C@@H](C)CC)C(=O)O[C@@H]1C [MICROPEPTIN EI992]
pIC50: 5.42
//
Compound: CCCCCC(=O)N[C@@H](CC(=O)O)C(=O)N[C@@H]1C(=O)N[C@@H](CCCNC(=N)N)C(=O)N[C@H]2CC[C@@H](O)N(C2=O)[C@@H]([C@@H](C)CC)C(=O)N(C)[C@@H](Cc2c[nH]c3ccccc23)C(=O)N[C@@H](C(C)C)C(=O)O[C@@H]1C [MICROPEPTIN SF995]
pIC50: 6.70

Name the reported pIC50 value associated with the compound CCCCCC(=O)N[C@@H](CC(=O)O)C(=O)N[C@@H]1C(=O)N[C@@H](CCCNC(=N)N)C(=O)N[C@H]2CC[C@@H](O)N(C2=O)[C@@H]([C@@H](C)CC)C(=O)N(C)[C@@H](CC(=O)c2ccccc2N)C(=O)N[C@@H](C(C)C)C(=O)O[C@@H]1C [MICROPEPTIN SD999]
5.40
